Values from patent US20210388081A1

Molecular target: T1, Fc Receptor-like 5 (FcRL5), full length, overexpressed on 3T3 or Raji cells (human, UniProt Q96RD9 16-977)
T1 construct: also called 3T3-FcRL5
T1 sequence: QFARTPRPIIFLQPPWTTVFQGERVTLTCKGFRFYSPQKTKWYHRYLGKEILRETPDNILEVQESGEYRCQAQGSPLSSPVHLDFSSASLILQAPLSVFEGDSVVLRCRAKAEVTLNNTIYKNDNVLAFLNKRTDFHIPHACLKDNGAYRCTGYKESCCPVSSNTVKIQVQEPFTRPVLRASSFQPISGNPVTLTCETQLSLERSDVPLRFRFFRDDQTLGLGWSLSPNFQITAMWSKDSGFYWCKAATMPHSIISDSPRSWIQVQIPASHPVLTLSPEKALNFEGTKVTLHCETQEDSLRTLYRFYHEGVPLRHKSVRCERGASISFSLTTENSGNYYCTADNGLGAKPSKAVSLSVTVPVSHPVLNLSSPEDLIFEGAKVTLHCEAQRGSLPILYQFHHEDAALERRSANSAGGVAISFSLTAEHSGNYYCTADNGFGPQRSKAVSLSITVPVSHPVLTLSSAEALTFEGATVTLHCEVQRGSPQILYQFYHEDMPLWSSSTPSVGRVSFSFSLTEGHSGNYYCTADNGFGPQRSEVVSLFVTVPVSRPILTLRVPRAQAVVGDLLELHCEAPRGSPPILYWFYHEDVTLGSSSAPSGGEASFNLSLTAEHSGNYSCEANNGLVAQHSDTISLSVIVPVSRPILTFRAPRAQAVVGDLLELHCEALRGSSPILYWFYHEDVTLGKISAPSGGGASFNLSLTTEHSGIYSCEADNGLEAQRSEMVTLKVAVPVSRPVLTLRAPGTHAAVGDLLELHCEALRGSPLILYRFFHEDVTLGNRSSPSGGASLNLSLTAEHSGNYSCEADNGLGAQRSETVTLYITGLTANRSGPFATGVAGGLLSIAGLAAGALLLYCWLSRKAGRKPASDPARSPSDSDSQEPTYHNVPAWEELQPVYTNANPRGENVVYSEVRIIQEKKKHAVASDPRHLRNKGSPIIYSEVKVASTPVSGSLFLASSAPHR
Assay: phage clone screening on cells
attribute-measured: binding result

- binder: "ET200-079 (scFv, screened as phage clone; entry is VL-linker-VH-His tag-HA tag) scFv: SYELTQPPSASGTPGQRVTISCSGSSSNIGSNYVYWYQQLPGTAPKLFIYRNNQRPSGVPDRFSGSKSGTSASLAISGLRSEDEADYYCAAWDDSLSGYLFGTGTKVTVLGSRGGGGSGGGGSGGGGSLEMAEVQLVESGGGLVQPGRSLRLSCAASGFTFDDYAMHWVRQAPGKGLEWVSGISWNSGSIGYADSVKGRFTISRDNAKNSLYLQMNSLRAEDTALYYCANGDSNYYYGMDVWGQGTTVTVSSTSGQAGQHHHHHHGAYPYDVPDYAS"
  attribute-measured: "binding result"
  recorded-value: "binds"
- binder: "ET200-110 (scFv, screened as phage clone; entry is VL-linker-VH-His tag-HA tag) scFv: QSVLTQPPSASGTPGQRVTISCSGSSSNIGTNGVNWFQQFPGTAPKLLIYTNDQRPSGVPDRFSGSKSGTSASLAISGLQSADEADYYCAVWDHSLNGPVFGGGTKLTVLGSRGGGGSGGGGSGGGGSLEMAQVQLVQSGAEVKKPGSSVKVSCKASGGTFSSYAISWVRQAPGQGLEWMGGIIPIFGTANYAQKFQGRVTITADESTSTAYMELSSLRSEDTAVYYCARGAGFDAFDIWGQGTMVTVSSTSGQAGQHHHHHHGAYPYDVPDYAS"
  attribute-measured: "binding result"
  recorded-value: "binds"
